Test system: HT29 colon
assay.details: NCI tumour cell line growth inhibition, 48 h; in the data active = GI50 below about 0.43 µM; inactive = the rest
Labels: Y for active, N for inactive

| compound | label |
| --- | --- |
| CC1=C([Se]CC(OC(=O)CC[Se]c2ccccc2)C(=O)NCCCCCC(=O)OCc2ccccc2)C(=O)c2ccccc2C1=O (stereo not drawn) | N |
| NC(=O)c1cnc(N[C@@H]2CCCC[C@@H]2N)nc1Nc1cccc(-n2nccn2)c1 | N |
| OCCCCC#Cc1ccccc1C#Cc1ccccc1 | N |
| COCCn1cc(-c2csc(-c3c[nH]c4ccccc34)n2)c2cccnc21 | N |
| COP(=O)(OC)C(NC(c1ccccc1)c1ccccc1)c1ccc2c(c1)OCO2 (stereo not drawn) | N |
| C[C@]12CCC3[C@@H](C[C@@H]4SC(Nc5ccccc5)=N[C@@]45CC(=O)CC[C@]35C)[C@@H]1CCC2=O (stereo partly drawn) | N |
| Oc1ccc(/C=N\Nc2ccccn2)c(O)c1 | N |
| COc1ccccc1-[n+]1cc(-c2ccc(-c3ccccc3)cc2)n2c1CCCCC2 | Y |
| CC(C)(C)N1CCC1C(N)=O (stereo not drawn) | N |
| CCCCn1c2cc(OCc3cn(-c4ccc(Cl)cc4)nn3)ccc2c2ccnc(C)c21 | N |
| CN(C)CCCn1c2c(c3cnccc3c1=O)C(=O)c1ccccc1-2 | Y |
| COc1ccc(/C=C/C(=O)c2cc3c(N)c(C(=O)Nc4ccccc4Cl)sc3nc2C)cc1 | N |
| CC(=O)OC[C@H]1O[C@@H](n2ccc(=O)[nH]c2=O)[C@H](OC(C)=O)[C@@H]1OC(C)=O | N |
